target: purified human platelet GP llbllla receptor (Homo sapiens, UniProt P05106+P08514); construct: Platelet GP llbllla was prepared by the method of Fitzgerald, et al; from tissue; host or cells: human platelets; experiment: biochemical; assay type: binding
Sequence (P08514 32-887 limits assumed): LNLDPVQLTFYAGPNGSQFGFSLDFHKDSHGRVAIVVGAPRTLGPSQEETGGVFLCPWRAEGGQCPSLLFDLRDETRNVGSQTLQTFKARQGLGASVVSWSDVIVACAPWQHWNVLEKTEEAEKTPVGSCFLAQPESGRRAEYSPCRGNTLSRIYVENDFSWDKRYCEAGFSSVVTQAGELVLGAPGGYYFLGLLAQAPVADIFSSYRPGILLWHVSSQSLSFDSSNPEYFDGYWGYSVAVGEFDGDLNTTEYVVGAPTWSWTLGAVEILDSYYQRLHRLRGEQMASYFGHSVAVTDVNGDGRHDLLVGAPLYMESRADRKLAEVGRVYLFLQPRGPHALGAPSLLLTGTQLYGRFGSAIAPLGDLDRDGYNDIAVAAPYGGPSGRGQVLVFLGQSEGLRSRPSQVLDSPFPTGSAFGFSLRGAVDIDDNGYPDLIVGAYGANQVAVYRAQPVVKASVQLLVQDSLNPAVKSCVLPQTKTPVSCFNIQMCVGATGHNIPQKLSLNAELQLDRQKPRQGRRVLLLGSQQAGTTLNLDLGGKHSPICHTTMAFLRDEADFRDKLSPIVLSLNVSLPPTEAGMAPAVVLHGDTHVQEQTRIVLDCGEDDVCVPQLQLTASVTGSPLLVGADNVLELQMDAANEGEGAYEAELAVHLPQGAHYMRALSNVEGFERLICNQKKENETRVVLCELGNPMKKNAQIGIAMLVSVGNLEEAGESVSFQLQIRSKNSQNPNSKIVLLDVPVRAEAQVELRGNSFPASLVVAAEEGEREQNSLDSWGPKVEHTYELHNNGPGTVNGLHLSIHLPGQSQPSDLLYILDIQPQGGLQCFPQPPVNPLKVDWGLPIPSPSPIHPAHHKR
Sequence (P08514 891-1039 partner limits assumed): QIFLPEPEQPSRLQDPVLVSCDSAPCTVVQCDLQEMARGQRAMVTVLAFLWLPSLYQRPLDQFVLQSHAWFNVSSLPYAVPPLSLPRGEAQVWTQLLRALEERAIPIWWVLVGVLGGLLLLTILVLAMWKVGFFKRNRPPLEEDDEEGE
Sequence (P05106 27-788): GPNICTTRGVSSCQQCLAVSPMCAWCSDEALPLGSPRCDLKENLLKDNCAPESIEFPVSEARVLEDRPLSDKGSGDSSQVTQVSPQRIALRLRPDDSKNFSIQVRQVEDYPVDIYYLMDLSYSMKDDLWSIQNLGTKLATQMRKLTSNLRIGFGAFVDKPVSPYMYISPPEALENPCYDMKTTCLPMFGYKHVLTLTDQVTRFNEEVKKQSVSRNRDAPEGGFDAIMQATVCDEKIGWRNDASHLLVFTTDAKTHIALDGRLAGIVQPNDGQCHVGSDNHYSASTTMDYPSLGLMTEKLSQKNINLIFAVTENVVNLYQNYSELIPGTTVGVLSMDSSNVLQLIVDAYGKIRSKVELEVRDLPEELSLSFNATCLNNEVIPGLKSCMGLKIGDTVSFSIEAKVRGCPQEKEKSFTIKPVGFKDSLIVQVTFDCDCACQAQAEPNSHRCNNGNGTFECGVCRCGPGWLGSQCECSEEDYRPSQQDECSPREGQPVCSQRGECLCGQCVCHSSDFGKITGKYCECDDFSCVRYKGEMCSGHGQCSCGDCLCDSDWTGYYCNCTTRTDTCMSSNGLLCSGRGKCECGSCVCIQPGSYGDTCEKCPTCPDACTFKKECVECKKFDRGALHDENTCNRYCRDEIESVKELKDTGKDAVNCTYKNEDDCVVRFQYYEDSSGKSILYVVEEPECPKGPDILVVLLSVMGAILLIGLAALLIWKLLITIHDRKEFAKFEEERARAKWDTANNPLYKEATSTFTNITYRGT
Positions of bridges follow the written chain, without caps; N, C: chain ends. Non-standard residues stand in square brackets, D forms with d. Residues, ends and D or L forms follow the SMILES beside them.
reported endpoint: Ratio of IC50 of test compound to IC50 of Gly-Arg-Gly-Asp-Val

Answered examples (4):
C[C@@H](O)[C@@H]1NC(=O)CSC[C@@H](C(=O)O)NC(=O)[C@H](CC(=O)O)NC(=O)CNC(=O)[C@H](CCCNC(=N)N)NC1=O [Ex. 6] ({CH2CO}-TRGDC-OH; thioether N-5) ... 0.46
N=C(N)NCCC[C@@H]1NC(=O)[C@H](Cc2ccc(O)cc2)NC(=O)CSC[C@@H](C(=O)O)NC(=O)[C@H](CC(=O)O)NC(=O)CNC1=O [Ex. 10] ({CH2CO}-YRGDC-OH; thioether N-5) ... 0.38
C[C@@H]1NC(=O)CSC[C@@H](C(=O)O)NC(=O)[C@H](CC(=O)O)NC(=O)CNC(=O)[C@H](CCCNC(=N)N)NC1=O [Ex. 8] ({CH2CO}-ARGDC-OH; thioether N-5) ... 0.5
N=C(N)NCCC[C@@H]1NC(=O)[C@@H](CC(N)=O)NC(=O)CSC[C@@H](C(=O)O)NC(=O)[C@H](CC(=O)O)NC(=O)CNC1=O [Ex. 5] ({CH2CO}-[dN]RGDC-OH; thioether N-5) ... 0.14

1 = CC(C)[C@H](NC(=O)[C@H](CC(=O)O)NC(=O)CNC(=O)[C@@H](N)CCCNC(=N)N)C(=O)O [Arg--Gly--Asp--Val, reference compound] (H-RGDV-OH)
2 = N=C(N)NCCC[C@@H]1NC(=O)[C@@H]2CCCN2C(=O)CSC[C@@H](C(=O)O)NC(=O)[C@H](CC(=O)O)NC(=O)CNC1=O [Ex. 12] ({CH2CO}-PRGDC-OH; thioether N-5)
Please tell me which of the two, 1 or 2 , has the higher reported Ratio of IC50 of test compound to IC50 of Gly-Arg-Gly-Asp-Val value. Please respond with the label that marks your chosen entry.
1
